# subjectOfTest: adenosine A1 receptor (Rattus norvegicus)
# Construct: from tissue
# Sequence (P25099 1-326): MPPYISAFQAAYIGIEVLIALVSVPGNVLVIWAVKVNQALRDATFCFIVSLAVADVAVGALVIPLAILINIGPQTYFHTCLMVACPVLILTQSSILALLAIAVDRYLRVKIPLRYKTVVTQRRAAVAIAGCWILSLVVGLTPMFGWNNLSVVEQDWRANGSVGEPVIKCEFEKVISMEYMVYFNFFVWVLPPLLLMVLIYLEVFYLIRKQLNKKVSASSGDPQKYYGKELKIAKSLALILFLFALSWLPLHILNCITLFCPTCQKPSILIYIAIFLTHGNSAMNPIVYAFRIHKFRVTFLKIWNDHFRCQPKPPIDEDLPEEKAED
# procedureSummary: In vitro binding to adenosine A1 receptor, radioligand [3H]-L-PIA
# testContext: ratio of Ki A2/A1
Some compounds, each annotated with its measured Ratio A2/A1.

compound	subjectOfTest	Ratio A2/A1
OC[C@H]1O[C@@H](n2cnc3c(NN4CCCCC4)nc(Cl)nc32)[C@H](O)[C@@H]1O	adenosine A1 receptor (Rattus norvegicus)	173
OC[C@H]1O[C@@H](n2cnc3c(NN4CCC(Oc5ccccc5)CC4)nc(Cl)nc32)[C@H](O)[C@@H]1O	adenosine A1 receptor (Rattus norvegicus)	857
OC[C@H]1O[C@@H](n2cnc3c(NN4CCCC(Oc5ccccc5)C4)nc(Cl)nc32)[C@H](O)[C@@H]1O (stereo partly shown)	adenosine A1 receptor (Rattus norvegicus)	158
OC[C@H]1O[C@@H](n2cnc3c(NN4CCCCC4)nc(F)nc32)[C@H](O)[C@@H]1O	adenosine A1 receptor (Rattus norvegicus)	289
